Data credit: paper PMC11079024

- testName: in vitro
- conditionLabel: human, HEK293 viability, dose 12.5 µM; individual replicate (Rep)

>  <compound>
C=C(C)[C@H]1Cc2c(ccc3c2O[C@@H]2COc4cc(OC)c(OC)cc4[C@@H]2C3=O)O1 [Rotenone, reference compound]

>  <viability>
27.1%

$$$$

----------
- testName: in vitro
- conditionLabel: human, HEK293 viability

>  <compound>
Fc1ccc(C(c2ccc(F)cc2)N2CCN(C/C=C/c3ccccc3)CC2)cc1 [Flunarizine]

>  <unitLabel>
%

>  <viability at 2 days, 50 µM>
17.1

$$$$

----------
- subjectOfTest: C. elegans (N2) complex I (NADH:ubiquinone oxidoreductase) (Caenorhabditis elegans, UniProt P24887+Q93873+Q94360)
- Sequence (Q94360 17-199): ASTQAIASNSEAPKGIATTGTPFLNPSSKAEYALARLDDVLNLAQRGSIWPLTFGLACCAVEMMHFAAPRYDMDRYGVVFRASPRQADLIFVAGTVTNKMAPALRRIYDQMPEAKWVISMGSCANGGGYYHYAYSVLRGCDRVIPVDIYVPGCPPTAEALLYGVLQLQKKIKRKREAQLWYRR
- Sequence (P24887 whole entry): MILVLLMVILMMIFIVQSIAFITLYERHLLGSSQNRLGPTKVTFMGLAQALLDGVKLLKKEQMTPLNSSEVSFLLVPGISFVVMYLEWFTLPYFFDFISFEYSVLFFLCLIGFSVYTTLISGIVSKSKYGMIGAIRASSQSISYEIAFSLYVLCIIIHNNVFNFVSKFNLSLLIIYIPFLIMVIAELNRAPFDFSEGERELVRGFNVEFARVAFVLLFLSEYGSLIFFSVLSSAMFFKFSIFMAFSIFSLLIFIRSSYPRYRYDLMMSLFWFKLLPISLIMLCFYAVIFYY
- Sequence (Q93873 31-482): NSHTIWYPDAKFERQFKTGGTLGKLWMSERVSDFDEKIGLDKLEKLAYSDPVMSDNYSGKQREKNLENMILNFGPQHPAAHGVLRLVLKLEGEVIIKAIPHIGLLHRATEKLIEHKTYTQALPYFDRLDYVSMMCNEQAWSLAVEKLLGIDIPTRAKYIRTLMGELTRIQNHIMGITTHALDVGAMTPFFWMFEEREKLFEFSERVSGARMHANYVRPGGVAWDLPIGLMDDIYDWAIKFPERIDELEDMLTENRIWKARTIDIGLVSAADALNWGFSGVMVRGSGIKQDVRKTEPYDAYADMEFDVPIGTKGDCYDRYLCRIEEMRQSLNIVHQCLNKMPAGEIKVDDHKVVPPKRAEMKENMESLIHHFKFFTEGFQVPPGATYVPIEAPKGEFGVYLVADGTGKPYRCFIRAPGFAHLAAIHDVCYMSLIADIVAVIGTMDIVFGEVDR
- testName: biochemical
- Assay type: biochemical
- conditionLabel: Dose 0.013 µM; read-out: C. elegans mitochondrial complex I activity

>  <molecule>
CCc1cc(OCCn2cnc3ccccc32)ccc1Cl

>  <activity at 0.013 µM, %>
96.9

$$$$
>  <molecule>
Cc1nc2ccccc2n1CCOc1ccccc1Cl

>  <activity at 0.013 µM, %>
84.7

$$$$
>  <molecule>
Nc1nc2ccccc2n1Cc1ccc(Cl)cc1

>  <activity at 0.013 µM, %>
90.4

$$$$
>  <molecule>
Clc1ccc(Cn2cnc3ccccc32)c(Cl)c1

>  <activity at 0.013 µM, %>
98.1

$$$$
>  <molecule>
Cc1ccc(C(C)C)c(OCC(O)Cn2cnc3ccccc32)c1 (stereo not shown)

>  <activity at 0.013 µM, %>
93.6

$$$$
>  <molecule>
Cc1ccc(OCCn2cnc3ccccc32)cc1

>  <activity at 0.013 µM, %>
104

$$$$
>  <molecule>
Brc1ccccc1OCCCCn1cnc2ccccc21

>  <activity at 0.013 µM, %>
87.2

$$$$
>  <molecule>
Cc1nc2ccccc2n1Cc1ccc(Cl)c(Cl)c1

>  <activity at 0.013 µM, %>
90.4

$$$$
>  <molecule>
Cc1ccccc1OCCCn1c(C)nc2ccccc21

>  <activity at 0.013 µM, %>
102

$$$$
>  <molecule>
CCCOc1ccc(Cn2cnc3ccccc32)cc1

>  <activity at 0.013 µM, %>
94.6

$$$$

----------
- subjectOfTest: M. musculus (heart) complex I (Mus musculus, UniProt P03888+Q91WD5+Q9DC70)
- Sequence (Q91WD5 34-463): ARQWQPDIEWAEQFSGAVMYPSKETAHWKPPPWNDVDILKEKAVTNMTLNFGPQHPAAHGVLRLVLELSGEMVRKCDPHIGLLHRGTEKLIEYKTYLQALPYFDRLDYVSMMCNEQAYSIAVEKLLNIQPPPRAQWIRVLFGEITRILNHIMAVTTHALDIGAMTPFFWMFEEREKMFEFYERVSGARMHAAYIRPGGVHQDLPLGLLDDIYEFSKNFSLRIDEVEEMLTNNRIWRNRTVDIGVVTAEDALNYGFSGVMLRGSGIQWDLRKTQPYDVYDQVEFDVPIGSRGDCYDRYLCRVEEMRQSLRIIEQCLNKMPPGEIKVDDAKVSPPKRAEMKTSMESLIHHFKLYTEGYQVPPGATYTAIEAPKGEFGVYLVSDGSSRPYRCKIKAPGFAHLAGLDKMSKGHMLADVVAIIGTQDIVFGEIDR
- Sequence (Q9DC70 36-224): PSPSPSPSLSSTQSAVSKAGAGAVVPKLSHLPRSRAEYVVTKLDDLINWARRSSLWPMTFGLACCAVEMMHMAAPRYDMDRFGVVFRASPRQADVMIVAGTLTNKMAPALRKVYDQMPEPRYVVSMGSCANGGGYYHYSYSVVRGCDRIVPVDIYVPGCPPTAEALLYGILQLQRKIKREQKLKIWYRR
- Sequence (P03888 whole entry): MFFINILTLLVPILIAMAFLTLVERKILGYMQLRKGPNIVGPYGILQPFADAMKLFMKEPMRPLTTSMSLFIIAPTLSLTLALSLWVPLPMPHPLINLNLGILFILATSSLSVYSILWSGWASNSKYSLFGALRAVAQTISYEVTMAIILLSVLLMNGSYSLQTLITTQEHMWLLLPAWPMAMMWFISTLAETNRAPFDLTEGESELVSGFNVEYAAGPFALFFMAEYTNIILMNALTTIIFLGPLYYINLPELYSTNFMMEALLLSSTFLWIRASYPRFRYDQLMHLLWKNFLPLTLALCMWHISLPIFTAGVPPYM
- testName: biochemical
- conditionLabel: heart mitochondria

>  <molecule>
COc1cc2c(cc1OC)C(/C=C/c1ccc(N(C)C)cc1)=NCC2

>  <subjectOfTest>
M. musculus (heart) complex I (Mus musculus, UniProt P03888+Q91WD5+Q9DC70)

>  <IC50, µM>
34.9

$$$$
>  <molecule>
COc1cc2c(cc1OC)C(c1ccc(-c3ccc(Cl)c(Cl)c3)o1)=NCC2

>  <subjectOfTest>
M. musculus (heart) complex I (Mus musculus, UniProt P03888+Q91WD5+Q9DC70)

>  <IC50, µM>
18.8

$$$$
>  <molecule>
COc1cc2c(cc1OC)C(C(C)c1ccc(CC(C)C)cc1)=NCC2 (centres unmarked)

>  <subjectOfTest>
M. musculus (heart) complex I (Mus musculus, UniProt P03888+Q91WD5+Q9DC70)

>  <IC50, µM>
9.52

$$$$
>  <molecule>
CC(C)(C)c1ccc(CCOc2ncnc3ccccc23)cc1 [Fenazaquin, reference compound]

>  <subjectOfTest>
M. musculus (heart) complex I (Mus musculus, UniProt P03888+Q91WD5+Q9DC70)

>  <IC50, µM>
0.021

$$$$
>  <molecule>
COc1ccc(Cc2nccc3cc(OC)c(OC)cc23)cc1OC [Papaverine, reference compound]

>  <subjectOfTest>
M. musculus (heart) complex I (Mus musculus, UniProt P03888+Q91WD5+Q9DC70)

>  <IC50, µM>
4.58

$$$$
